- assayed system: Aldehyde dehydrogenase 1A1 (Homo sapiens, UniProt P00352)
- Sequence (P00352 whole entry): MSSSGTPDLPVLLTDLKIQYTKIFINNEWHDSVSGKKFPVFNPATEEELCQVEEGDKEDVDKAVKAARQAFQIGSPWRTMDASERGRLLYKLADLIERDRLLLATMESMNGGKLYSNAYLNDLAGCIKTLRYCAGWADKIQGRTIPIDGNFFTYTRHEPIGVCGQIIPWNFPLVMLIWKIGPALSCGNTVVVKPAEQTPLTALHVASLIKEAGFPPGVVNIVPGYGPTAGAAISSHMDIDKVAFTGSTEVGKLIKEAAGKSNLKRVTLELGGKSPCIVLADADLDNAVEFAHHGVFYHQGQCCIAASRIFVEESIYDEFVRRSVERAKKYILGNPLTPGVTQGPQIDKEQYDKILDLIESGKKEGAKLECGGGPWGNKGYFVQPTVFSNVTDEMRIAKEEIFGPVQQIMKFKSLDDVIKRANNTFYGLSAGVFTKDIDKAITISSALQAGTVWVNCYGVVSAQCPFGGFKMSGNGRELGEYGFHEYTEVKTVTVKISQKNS
- experiment notes: Competitive inhibition of human ALDH1A1 using propionaldehyde as substrate by Lineweaver-Burk plot analysis
pKi: −log10 of the molar value.
property label: pKi

structure=Cc1cc(Br)c2c(c1)C(=O)C(=O)N2 property_label=pKi recorded_number=6.05

----------
Recorded IC50 by entry
Target sequence: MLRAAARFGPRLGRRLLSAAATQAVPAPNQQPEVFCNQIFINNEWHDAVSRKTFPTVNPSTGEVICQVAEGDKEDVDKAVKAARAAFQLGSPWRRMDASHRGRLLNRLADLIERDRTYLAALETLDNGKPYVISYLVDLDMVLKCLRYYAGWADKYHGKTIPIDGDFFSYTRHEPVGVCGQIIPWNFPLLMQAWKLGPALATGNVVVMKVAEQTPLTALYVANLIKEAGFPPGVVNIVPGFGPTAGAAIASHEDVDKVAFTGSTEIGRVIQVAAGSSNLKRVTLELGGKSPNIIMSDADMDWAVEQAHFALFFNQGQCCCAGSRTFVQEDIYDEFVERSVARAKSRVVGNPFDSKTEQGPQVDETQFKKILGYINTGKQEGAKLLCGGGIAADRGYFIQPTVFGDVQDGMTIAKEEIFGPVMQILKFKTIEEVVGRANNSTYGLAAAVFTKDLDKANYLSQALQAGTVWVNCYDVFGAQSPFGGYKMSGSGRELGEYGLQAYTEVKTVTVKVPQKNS
property label: IC50 (nM)

structure=O=C1C(=O)N(C/C=C/c2ccccc2)c2ccccc21 property_label=IC50 uom=nM readout_qualifier=> recorded_number=100000
structure=O=C1C(=O)N(CCc2ccccc2)c2ccc(Cl)cc21 property_label=IC50 uom=nM readout_qualifier== recorded_number=410
structure=O=C1C(=O)N(CN2CCN(Cc3ccc4c(c3)OCO4)CC2)c2ccc(Br)cc21 property_label=IC50 uom=nM readout_qualifier=> recorded_number=100000
structure=Cc1cc(Br)c2c(c1)C(=O)C(=O)N2 property_label=IC50 uom=nM readout_qualifier== recorded_number=2400
structure=O=C1C(=O)N(CN2CCOCC2)c2ccccc21 property_label=IC50 uom=nM readout_qualifier=> recorded_number=100000
structure=O=C1C(=O)N(Cc2ccccc2)c2ccc(Br)cc21 property_label=IC50 uom=nM readout_qualifier== recorded_number=2100
structure=CN1CCN(CN2C(=O)C(=O)c3ccccc32)CC1 property_label=IC50 uom=nM readout_qualifier=> recorded_number=100000
structure=O=C1C(=O)N(CCc2ccccc2)c2ccc(Br)cc21 property_label=IC50 uom=nM readout_qualifier== recorded_number=50
structure=O=C1C(=O)N(CCc2ccccc2)c2ccccc21 property_label=IC50 uom=nM readout_qualifier== recorded_number=3500
structure=O=C1C(=O)N(Cc2ccccc2)c2ccc(Cl)cc21 property_label=IC50 uom=nM readout_qualifier== recorded_number=2100
